ASSAY METHOD TEXT: Biodistribution of [^125I]2 and [^67Ga]3 in normal mice with IPBA
Format: in vivo
ASSAY SETUP: male, ddY, mouse, liver, iv, total radioactivity, normal mice, 4 h after administration of [^125I]2 and [^67Ga]3; IPBA 5 eq at 1 h postinjection; read-out: Radioactivity, Liver
Procedure: To evaluate the effects of inhibitors in normal mice, [^125I]2 (37 kBq) and [^67Ga]3 (37 kBq) were intravenously coadministered into 6 weeks male ddY mice (29-36 g, Japan SLC, Inc., Hamamatsu, Japan). At 1 h postinjection of radiotracers, sodium 4-(4-iodophenyl)butanoate (IPBA) at 2 (680 µg, 2.2 µmol) or 5 (1.7 mg, 5.5 µmol) molar equivalent of blood albumin was administered. Mice were sacrificed at 4 h post-injection of radiotracers. Table S2. […]
PROPERTY: tissue uptake at 4 h (%ID/g)
Report only the number, with the unit %ID/g understood.

Q) What does the data say about its tissue uptake at 4 h? Entry: N=C(N)NCCC[C@@H]1NC(=O)[C@H](CCCCNC(=O)[C@H](CCCCN)NC(=O)CN2CCN(CC(=O)O)CCN(CC(=O)O)CCN(CC(=O)O)CC2)NC(=O)[C@@H](Cc2ccccc2)NC(=O)[C@H](CC(=O)O)NC(=O)CNC1=O [[^67Ga]3, [^67Ga]Ga-DOTA-K-c(RGDfK), metal not drawn]
A) 1.54

###

ASSAY METHOD TEXT: Biodistribution of [^125I]2 and [^67Ga]3 in normal mice with IPBA
Assay type: in vivo
ASSAY SETUP: male, ddY, mouse, in vivo, iv, total radioactivity, Radioactivity, S. intestine
PROPERTY: tissue uptake at 4 h
Report as: number unit

Q) What does the data say about its tissue uptake at 4 h? Entry: N=C(N)NCCC[C@@H]1NC(=O)[C@H](CCCCNC(=O)[C@H](CCCCN)NC(=O)CN2CCN(CC(=O)O)CCN(CC(=O)O)CCN(CC(=O)O)CC2)NC(=O)[C@@H](Cc2ccccc2)NC(=O)[C@H](CC(=O)O)NC(=O)CNC1=O [[^67Ga]3, [^67Ga]Ga-DOTA-K-c(RGDfK), metal not drawn]
A) 1.05 %ID/g

###

ASSAY METHOD TEXT: Biodistribution of [^125I]2 and [^67Ga]3 in normal mice with IPBA
Type: in vivo
ASSAY SETUP: male, ddY, mouse, neck, iv, total radioactivity, normal mice, 4 h after administration of [^125I]2 and [^67Ga]3; IPBA 5 eq at 1 h postinjection; read-out: Radioactivity, Neck
PROPERTY: tissue uptake dose at 4 h (%ID)
Report only the number, with the unit %ID understood.

Q) What does the data say about its tissue uptake dose at 4 h? Entry: N=C(N)NCCC[C@@H]1NC(=O)[C@H](CCCCNC(=O)[C@H](CCCCN)NC(=O)CN2CCN(CC(=O)O)CCN(CC(=O)O)CCN(CC(=O)O)CC2)NC(=O)[C@@H](Cc2ccccc2)NC(=O)[C@H](CC(=O)O)NC(=O)CNC1=O [[^67Ga]3, [^67Ga]Ga-DOTA-K-c(RGDfK), metal not drawn]
A) 0.01

###

ASSAY METHOD TEXT: Biodistribution of [^125I]2 and [^67Ga]3 in normal mice with IPBA
Format: in vivo
ASSAY SETUP: male, ddY, mouse, heart, iv, total radioactivity, normal mice, 4 h after administration of [^125I]2 and [^67Ga]3; IPBA 5 eq at 1 h postinjection; read-out: Radioactivity, Heart
PROPERTY: tissue uptake at 4 h (%ID/g)
Report only the number, with the unit %ID/g understood.

Q) What does the data say about its tissue uptake at 4 h? Entry: N=C(N)NCCC[C@@H]1NC(=O)[C@H](CCCCNC(=O)[C@H](CCCCN)NC(=O)CN2CCN(CC(=O)O)CCN(CC(=O)O)CCN(CC(=O)O)CC2)NC(=O)[C@@H](Cc2ccccc2)NC(=O)[C@H](CC(=O)O)NC(=O)CNC1=O [[^67Ga]3, [^67Ga]Ga-DOTA-K-c(RGDfK), metal not drawn]
A) 0.29

###

ASSAY METHOD TEXT: Biodistribution of [^125I]2 and [^67Ga]3 in normal mice with IPBA
Assay type: in vivo
ASSAY SETUP: male, ddY, mouse, in vivo, iv, total radioactivity, Radioactivity, L. intestine
PROPERTY: tissue uptake at 4 h (%ID/g)
Report only the number, with the unit %ID/g understood.

Q) What does the data say about its tissue uptake at 4 h? Entry: N=C(N)NCCC[C@@H]1NC(=O)[C@H](CCCCNC(=O)[C@H](CCCCN)NC(=O)CN2CCN(CC(=O)O)CCN(CC(=O)O)CCN(CC(=O)O)CC2)NC(=O)[C@@H](Cc2ccccc2)NC(=O)[C@H](CC(=O)O)NC(=O)CNC1=O [[^67Ga]3, [^67Ga]Ga-DOTA-K-c(RGDfK), metal not drawn]
A) 3.07

###

ASSAY METHOD TEXT: Biodistribution of [^125I]2 and [^67Ga]3 in normal mice with IPBA
Format: in vivo
ASSAY SETUP: male, ddY, mouse, neck, iv, total radioactivity, normal mice, 4 h after administration of [^125I]2 and [^67Ga]3; IPBA 2 eq at 1 h postinjection; read-out: Radioactivity, Neck
Description: To evaluate the effects of inhibitors in normal mice, [^125I]2 (37 kBq) and [^67Ga]3 (37 kBq) were intravenously coadministered into 6 weeks male ddY mice (29-36 g, Japan SLC, Inc., Hamamatsu, Japan). At 1 h postinjection of radiotracers, sodium 4-(4-iodophenyl)butanoate (IPBA) at 2 (680 µg, 2.2 µmol) or 5 (1.7 mg, 5.5 µmol) molar equivalent of blood albumin was administered. Mice were sacrificed at 4 h post-injection of radiotracers. Table S2. […]
PROPERTY: tissue uptake dose at 4 h (%ID)
Report only the number, with the unit %ID understood.

Q) What does the data say about its tissue uptake dose at 4 h? Entry: N=C(N)NCCC[C@@H]1NC(=O)[C@H](CCCCNC(=O)[C@H](CCCCN)NC(=O)CN2CCN(CC(=O)O)CCN(CC(=O)O)CCN(CC(=O)O)CC2)NC(=O)[C@@H](Cc2ccccc2)NC(=O)[C@H](CC(=O)O)NC(=O)CNC1=O [[^67Ga]3, [^67Ga]Ga-DOTA-K-c(RGDfK), metal not drawn]
A) 0.01

###

ASSAY METHOD TEXT: Biodistribution of [^125I]2 and [^67Ga]3 in normal mice with IPBA
Assay type: in vivo
ASSAY SETUP: male, ddY, mouse, stomach, iv, total radioactivity, normal mice, 4 h after administration of [^125I]2 and [^67Ga]3; IPBA 2 eq at 1 h postinjection; read-out: Radioactivity, Stomach
PROPERTY: tissue uptake dose at 4 h

Q) What does the data say about its tissue uptake dose at 4 h? Entry: N=C(N)NCCC[C@@H]1NC(=O)[C@H](CCCCNC(=O)[C@H](CCCCN)NC(=O)CN2CCN(CC(=O)O)CCN(CC(=O)O)CCN(CC(=O)O)CC2)NC(=O)[C@@H](Cc2ccccc2)NC(=O)[C@H](CC(=O)O)NC(=O)CNC1=O [[^67Ga]3, [^67Ga]Ga-DOTA-K-c(RGDfK), metal not drawn]
A) 0.48 %ID

###

ASSAY METHOD TEXT: Biodistribution of [^125I]2 and [^67Ga]3 in normal mice with IPBA
Type: in vivo
ASSAY SETUP: male, ddY, mouse, kidney, iv, total radioactivity, normal mice, 4 h after administration of [^125I]2 and [^67Ga]3; IPBA 5 eq at 1 h postinjection; read-out: Radioactivity, Kidney
PROPERTY: tissue uptake at 4 h (%ID/g)
Report only the number, with the unit %ID/g understood.

Q) What does the data say about its tissue uptake at 4 h? Entry: N=C(N)NCCC[C@@H]1NC(=O)[C@H](CCCCNC(=O)[C@H](CCCCN)NC(=O)CN2CCN(CC(=O)O)CCN(CC(=O)O)CCN(CC(=O)O)CC2)NC(=O)[C@@H](Cc2ccccc2)NC(=O)[C@H](CC(=O)O)NC(=O)CNC1=O [[^67Ga]3, [^67Ga]Ga-DOTA-K-c(RGDfK), metal not drawn]
A) 8.04

###

ASSAY METHOD TEXT: Biodistribution of [^125I]2 and [^67Ga]3 in normal mice with IPBA
Type: in vivo
ASSAY SETUP: male, ddY, mouse, stomach, iv, total radioactivity, normal mice, 4 h after administration of [^125I]2 and [^67Ga]3; IPBA 5 eq at 1 h postinjection; read-out: Radioactivity, Stomach
PROPERTY: tissue uptake dose at 4 h (%ID)
Report only the number, with the unit %ID understood.

Q) What does the data say about its tissue uptake dose at 4 h? Entry: N=C(N)NCCC[C@@H]1NC(=O)[C@H](CCCCNC(=O)[C@H](CCCCN)NC(=O)CN2CCN(CC(=O)O)CCN(CC(=O)O)CCN(CC(=O)O)CC2)NC(=O)[C@@H](Cc2ccccc2)NC(=O)[C@H](CC(=O)O)NC(=O)CNC1=O [[^67Ga]3, [^67Ga]Ga-DOTA-K-c(RGDfK), metal not drawn]
A) 0.59

Reference source: paper PMC11224111
